- Tested on: EKVX NSCLC
- experimentSummary: NCI tumour cell line growth inhibition, 48 h
reportedMetric: TGI

Suppose we examine the molecule COc1cc2c(cc1OC)C(c1ccccc1CCCCl)=NCC2 ; what TGI value has been reported?
> 100 µM

What value of TGI has been reported for the following molecule? O=C(/C=C/c1ccccc1)NC1C=Nc2ccc(Cl)cc2NC1=O (stereo unspecified)
> 100 µM

Give its TGI value. Item: O=C(Nc1ccccc1OC(F)(F)F)Nc1n[nH]c2ccccc12
> 100 µM

Given CCOC(=O)c1c2ccccc2n2c(N)c(C(N)=O)nnc12 , state its recorded TGI.
> 100 µM

Given the entry Cc1nc2ccccc2c(=O)n1-c1ccccc1I , report its measured TGI.
> 100 µM

Recorded TGI of Oc1ccc(-c2nc(-c3cccnc3)c(-c3ccc(F)cc3)[nH]2)cc1 , please.
41.7 µM

====

- Test system: SNB-19 CNS
- experimentSummary: NCI tumour cell line growth inhibition, 48 h
Provide the recorded TGI for the entries that follow.

Notebook: pull reported TGI for SNB-19 CNS, entry Cc1cccc2c(=O)cc(-c3ccccc3)[nH]c12
> 100 µM

Quick check: TGI on SNB-19 CNS, item NC(=O)c1cccc2cn(-c3ccc([C@@H]4CCCNC4)cc3)nc12 ?
> 92.7 µM

For SNB-19 CNS, provide TGI of Cc1cc(C)nc(NS(=O)(=O)c2ccc(NC(=O)c3ccc(Cl)c4c(Nc5ccc(S(=O)(=O)Nc6nc(C)cc(C)n6)cc5)c5ccccc5nc34)cc2)n1 please.
> 100 µM

For the record CCOC(=O)c1c2ccccc2n2c(N)c(C(N)=O)nnc12 , what value of TGI is listed for SNB-19 CNS?
91.8 µM

Request: TGI, test system SNB-19 CNS, entry O=C(Nc1ccccc1)NS(=O)(=O)c1ccc(-n2nc3c(c2-c2cccs2)Cc2ccccc2-3)cc1
> 100 µM

Find TGI (SNB-19 CNS) for the entry N.N.N.N.O=[N+]([O-])[O-].[Co+3].[N-]=[N+]=[N-].[N-]=[N+]=[N-]
> 100 µM

Give the reported TGI for COc1ccc(CNc2nc(NCc3ccc(OC)c(OC)c3)nc(NC3CCCCC3)n2)cc1 (system: SNB-19 CNS).
> 100 µM

Entry COC1(OC)CCC2C1C1CCC(OC)(OC)C21 (stereo not given) , system SNB-19 CNS: what TGI was measured?
> 50 µM

Entry O=C1OCC(O)=C1C(c1ccc(Cl)cc1)c1cc2c(cc1O)OCO2 (stereo not given) , system SNB-19 CNS: what TGI was measured?
> 100 µM

SNB-19 CNS / TGI / CCC[C@@H](O)C[C@@H]1CCC[C@H](C[C@@H](O)CC)N1C : value?
> 100 µM

====

- System: SR leukemia
- experimentSummary: NCI tumour cell line growth inhibition, 48 h
Where a SMILES comes first, the peptide text is derived from it. [ ]: non-standard residue; d: D form. The star is where a group is joined. ξ: configuration not given here. X6 = FC(F)(F)c1cc(NC(=S)*)cc(C(F)(F)F)c1; ξF = NC(Cc1ccccc1)C(=O)O
reportedMetric: log10 of TGI (log10 of the value in µM)
Short version: log10 scale, TGI, µM.

Param item = O=C1/C(=C/c2cccc([N+](=O)[O-])c2)COc2ccc(O)cc21 ; retrieve measured log10 of TGI.
0.07

log10 of TGI for Cc1ccc2c(=O)cc(-c3ccc(F)cc3)[nH]c2n1 ?
1.54

Query (molecule): COc1ccc(C2c3cc4c(cc3OC(NNS(=O)(=O)c3ccc(C)cc3)C2C)OCO4)cc1 (stereo not given) ; field requested: log10 of TGI
1.84

Please give the measured log10 of TGI for this molecule: COC(=O)[C@@H](NC(=O)CNC(=O)[C@H]1CCCN1C(=O)C(Cc1ccccc1)NC(=S)Nc1cc(C(F)(F)F)cc(C(F)(F)F)c1)C(C)C (stereo not given in full) (X6-[ξF][dP]GV-OMe)
0.93

log10 of TGI lookup needed for CC[C@@]1(O)C(=O)OCc2c1cc1n(c2=O)Cc2c-1nc1ccccc1c2/C=N\NC(=O)CN , thanks.
-0.33

What log10 of TGI value was documented for this molecule, O=C(/C=C/C12c3ccccc3C(c3ccccc31)C1C(=O)NC(=O)C12)c1ccncc1 (stereo not given) ?
0.87

// query log10 of TGI value for entry Oc1cccc2c(Cl)ccnc12
0.98

Quick one: log10 of TGI for C(/c1ccco1)=c1/nc(-c2ccccc2)n2c1nc1ccccc12 ?
1.63

Given the entry CCC12C=CCN3CCC4(C(=C(C(=O)OC)[C@@H]1O)Nc1ccccc14)C32 (stereo not given in full) , report its measured log10 of TGI.
0.66
